For each record, write down the corresponding Native geph Binding Intensity [norm.].
System: native geph
assay.info: µSPOT peptide microarray binding assay with native geph from mouse brain lysate
cond: µSPOT full positional scan of GlyRβ 15-mer DLRSNDFSIVGSLPR; native geph; intensity normalised to wild-type sequence (= 1)
Give bare numbers, in norm..

These solved cases illustrate the format of a correct answer.
biosequence	units.text	Native geph Binding Intensity [norm.]
DLRSNDFSIVKSLPR [GlyRβ_Full_Positional_Scan_214, GlyR β 414-428 variant G424K]	norm.	0.17
DLRSNDFSIVGSFPR [GlyRβ_Full_Positional_Scan_247]	norm.	0.96
DLRSNDFSIVGSKPR [GlyRβ_Full_Positional_Scan_254]	norm.	0.24
DLRSNDFSIVGSWPR [GlyRβ_Full_Positional_Scan_248]	norm.	0.52
DLRSNDFSIVGSLPR [GlyRβ_Full_Positional_Scan_235]	norm.	1

Now consider a different sequence.
Note Native geph Binding Intensity [norm.] for the sequence shown: DLRSNDFSIVGSLSR [GlyRβ_Full_Positional_Scan_275]
0.5

---

System: gephE
assay.info: µSPOT peptide microarray binding assay with recombinant gephE
cond: µSPOT peptide microarray, GlyRβ full positional scan, recombinant gephE; intensity normalised to wild-type sequence DLRSNDFSIVGSLPR (=1)
result.type: gephE Binding Intensity [norm.] (norm.)
Answers are plain numbers, in norm..

biosequence	gephE Binding Intensity [norm.], norm.
DLRSNDFSITGSLPR [GlyRβ_Full_Positional_Scan_196, GlyR β 414-428 variant V423T]	0.66
DLRSVDFSIVGSLPR [GlyRβ_Full_Positional_Scan_086]	0.84
DLRSNDFQIVGSLPR [GlyRβ_Full_Positional_Scan_160, GlyR β 414-428 variant S421Q]	0.66

Go through the items and report each one's gephE Binding Intensity [norm.].
1. DLRSNMFSIVGSLPR [GlyRβ_Full_Positional_Scan_118]
2. DLRSNDFSIVVSLPR [GlyRβ_Full_Positional_Scan_206, GlyR β 414-428 variant G424V]

0.85
0.43

---

Test system: gephE
assay.info: µSPOT peptide microarray binding assay with recombinant gephE
cond: µSPOT full positional scan of GlyRβ 15-mer DLRSNDFSIVGSLPR; intensity normalised to wild-type sequence (= 1)
// map gephE Binding Intensity [norm.] onto a label; ranges band 1: < 0.7 norm.; band 2: ≥ 0.7 norm. and < 0.9 norm.; band 3: ≥ 0.9 norm.

Bin this entry: DLRSNDFSIVGSLLR [GlyRβ_Full_Positional_Scan_264]
band 1

---

System: native geph
assay.info: µSPOT peptide microarray binding assay with native geph from mouse brain lysate
cond: µSPOT peptide microarray, GlyRβ full positional scan, native geph from mouse brain lysate; intensity normalised to wild-type sequence DLRSNDFSIVGSLPR (=1)
For each record, write down the corresponding Native geph Binding Intensity [norm.].
Numbers only, in norm..

These solved cases illustrate the format of a correct answer.
biosequence	observed.measurement
DLRSNKFSIVGSLPR [GlyRβ_Full_Positional_Scan_114]	0.37
DLRSNDFSIKGSLPR [GlyRβ_Full_Positional_Scan_194, GlyR β 414-428 variant V423K]	0.16
ALRSNDFSIVGSLPR [GlyRβ_Full_Positional_Scan_001]	0.77
DLHSNDFSIVGSLPR [GlyRβ_Full_Positional_Scan_053]	1.37
DLRSNVFSIVGSLPR [GlyRβ_Full_Positional_Scan_106]	0.58

Go through the items and report each one's Native geph Binding Intensity [norm.].
1. DLRSNDFSQVGSLPR [GlyRβ_Full_Positional_Scan_180, GlyR β 414-428 variant I422Q]
2. SLRSNDFSIVGSLPR [GlyRβ_Full_Positional_Scan_015]
3. DLCSNDFSIVGSLPR [GlyRβ_Full_Positional_Scan_057]
4. DLRSNDRSIVGSLPR [GlyRβ_Full_Positional_Scan_132, GlyR β 414-428 variant F420R]
5. DLRSNDFSIVASLPR [GlyRβ_Full_Positional_Scan_201, GlyR β 414-428 variant G424A]

1: 0.32; 2: 0.69; 3: 1.41; 4: 0.41; 5: 0.18
